The reported numbers originate from PubChem BioAssay (NCI).

Answer each item with its documented TGI.
# Tested on: SK-MEL-5 melanoma
# test-name: NCI tumour cell line growth inhibition, 48 h
# output: bare number, implied unit µM

Query string: Recorded TGI for COc1ccc2c(c1)OC(N(C(C)=O)C(C)=O)=C(C#N)C2c1ccc(F)cc1 (stereo not given) , please?
Result string: 18.3

Query string: Which TGI is reported for this compound? "Cc1nc2sc(C(=O)Nc3ccccc3)c(N)c2cc1C(=O)/C=C/c1ccccc1"
Result string: 5.98

Query string: Fill blank: measured TGI of the compound CC1OC2CC(=O)OC2C2=C1C(=O)c1c(O)c3c(c(O)c1C2=O)C1CC(O)C3(O)C(C)O1 (stereo not given) is ____.
Result string: 2.5

Query string: Which measured TGI value corresponds to CC(=O)NC1=C(C)C(=O)c2c(nc3n2CCC3O)C1=N (stereo not given) ?
Result string: 26.2

###

# Test system: LOX IMVI melanoma
# test-name: NCI tumour cell line growth inhibition, 48 h
For each record, write down the corresponding TGI.

Query string: Item under review: "COCc1cc2c(cc1/C=C/[N+](=O)[O-])OCO2" . Reported TGI?
Result string: 67.9 µM

Query string: For the compound shown here, COc1cc2c(cc1OC)CC(N=[N+]=[N-])c1cc(OC)c(OC)cc1/C=C\2 (stereo not given) , give the reported TGI.
Result string: > 100 µM

Query string: Record request: TGI value, item COC(=O)c1c(C)cccc1CC1Cc2c(C)cccc2C1=O (stereo not given)
Result string: 33.6 µM

Query string: If you can, please state the reported TGI value of COc1ccc(NC(=O)/C(CC2=Nc3ccc([N+](=O)[O-])cc3NC2O)=N\NC(=O)C[N+](C)(C)C)c(OC)c1 (stereo not given) .
Result string: > 100 µM

Query string: For "CC1(C)N=C(N)N=C(N)N1c1cccc(OCCOc2ccc([N+](=O)[O-])cc2)c1" , what is its reported TGI?
Result string: > 100 µM

Query string: I would be grateful if you could share the reported TGI for "O=C1C(Cl)=C(Nc2cccc(O)c2)C(=O)N1c1cc(Cl)c(Cl)cc1Cl" .
Result string: 28 µM

Query string: TGI lookup needed for "O=C(N/N=C\c1ccc2ccccc2c1)Nc1ccc([N+](=O)[O-])cc1" , thanks.
Result string: > 100 µM

Query string: Give the measured TGI of "Cc1nc2c(sc3nc4ccccc4n32)c(=O)[nH]1" .
Result string: > 100 µM

Query string: Looking for the measured TGI of "Nc1nc2c(c(=O)[nH]1)CN(c1ccc(S(N)(=O)=O)cc1)CN2" , can you help?
Result string: > 100 µM

Query string: Requested read-out: TGI. Entry: "Fc1ccc2[nH]c3c(NCCCN4CCOCC4)ncnc3c2c1"
Result string: > 100 µM

Query string: Fill in the blank: the reported TGI of "C=CC[C@H](C)CCC(=O)N1[C@H]2CC3CC[C@@]2(CS1(=O)=O)C3(C)C" is ____.
Result string: 83 µM

Query string: Which TGI value is on record for "Cc1cccc(NC(=S)Nc2ccccc2Cl)n1" ?
Result string: > 100 µM

Query string: Return reported TGI; argument: C=C1CC[C@@H]2[C@](C)(COC(C)=O)[C@H](OC(C)=O)CC[C@@]2(C)[C@@H]1CC(Nc1ccc(S(=O)(=O)Nc2nccc(C)n2)cc1)C1=CCOC1=O (stereo not given in full)
Result string: 3.24 µM

Query string: State the recorded TGI for this entry: COc1ccc2c3c1OC1c4[nH]c5ccccc5c4CC4(O)C(C2)N(C)CCC314 (stereo not given)
Result string: 52 µM

Query string: Which TGI value is on record for CC1C[C@]2(C)C(=O)N(c3ccccc3)C(=N)[C@@H]2N(C)c2ccccc21 (stereo not given in full) ?
Result string: > 100 µM

Query string: // lookup TGI for "CN(C)c1ccc(/C=C/C=C(/C#N)c2ccccc2)cc1"
Result string: > 74.3 µM

Query string: Entry under review: CC(C)(Br)C1(O)CCCN1C(=O)c1ccccc1 (stereo not given) . Reported TGI?
Result string: > 100 µM

Query string: So what's the measured TGI for this one? CSC1=C(c2ccc(Cl)cc2)SC(N2CCCCC2)N1c1ccc([N+](=O)[O-])cc1 (stereo not given)
Result string: > 100 µM

Query string: Which TGI reading was recorded for the compound Cc1nnc2n1-c1ccccc1C(=S)N1CSCC21 (stereo not given) ?
Result string: > 100 µM

Query string: Recorded TGI of "O=c1cc(-c2ccccc2)c2cc3c(=O)ccoc3cc2o1" , please.
Result string: > 100 µM

Query string: Quick check: TGI of "O=c1oc2ccccc2n1CCN1CCCCC1" ?
Result string: > 100 µM

Query string: Field request: TGI | item: CC(=O)OCC1OC(n2ccc(=O)[nH]c2=O)C(OC(C)=O)C1OC(C)=O (stereo not given)
Result string: > 100 µM

Query string: May I ask what TGI has been recorded for "O=C1CC[C@@H](S(=O)(=O)c2ccccc2)[C@@H](/C=C/c2ccccc2)O1" ?
Result string: > 100 µM

Query string: What TGI value was documented for this compound, "S=C1N=C(Cl)C2(NN1)c1ccccc1-c1ccccc12" ?
Result string: > 10 µM

Query string: Query (compound): "COc1cccc(-c2cc(=O)c3c(C)ccnc3[nH]2)c1" ; field requested: TGI
Result string: > 100 µM

Query string: Given the compound "CC(=O)Oc1ccc(O)c(O)c1C/C=C(\C)CC/C=C(\C)CC/C=C(\C)CCC=C(C)C" , what is its reported TGI?
Result string: 0.694 µM

Query string: I'd like to know its TGI. The compound in question is COC(=O)CCC12CCC(O1)c1ccccc12 (stereo not given)
Result string: > 100 µM

Query string: # input compound: COc1ccc(CC(C)N)cc1 (stereo not given) ; wanted: its TGI
Result string: > 100 µM

Query string: Which TGI reading was recorded for the compound CC(C)C1CC(O)O[C@@H]([C@@H](C)[C@H]2CC(=O)[C@@H]3[C@@H]4[C@@H](O)[C@H](O)[C@H]5[C@@H](O)[C@H](O)CC[C@]5(C)[C@H]4CC[C@]23C)C1 (stereo not given in full) ?
Result string: > 100 µM

Query string: For the compound shown here, "CO/N=C(\C)c1ccc(Nc2cc(-c3ccccc3)nc3c(O)cccc23)cc1" , give the reported TGI.
Result string: 27.9 µM

Query string: Any idea what its TGI is? The compound is CCC1C(c2cc(OC)c(OC)c(OC)c2)c2cc3c(cc2OC1N1CCOCC1)OCO3 (stereo not given)
Result string: 10.5 µM

Query string: Please report the recorded TGI for CC(C)C1OC(=O)/C=C/C=C/C=C/C=C/C=C/CC(O)CC(O)CC(O)CC(O)CC(O)CC(O)CC(O)CC(O)/C=C/C1C (stereo not given) .
Result string: > 100 µM

Query string: // TGI lookup, key: "Brc1ccc2[nH]cc(-c3nc(-c4c[nH]c5ccccc45)cs3)c2c1"
Result string: 4.68 µM

Query string: Value lookup for TGI; key = "OCCCCCCOc1ccc(-c2cc(-c3ccccn3)nc(-c3ccccn3)c2)cc1"
Result string: 1.02 µM

Query string: Given the compound COc1cccc(C2c3cc4c(cc3OC(O)(CO)C2C(=O)O)OCO4)c1 (stereo not given) (tested in a mixture with another compound) , what is its reported TGI?
Result string: > 100 µM

Query string: Consider the compound shown here: "Clc1nc(Cl)c2ncn(Cc3ccc(COc4cccc(OCc5ccc(Cn6cnc7c(Cl)nc(Cl)nc76)cc5)c4)cc3)c2n1" What is its recorded TGI?
Result string: 12.7 µM

Query string: Which TGI value belongs to "Cn1c(-c2ccc(/C=N\N3CCN(/N=C/c4ccc(-c5c[n+]6ccccc6n5C)cc4)CC3)cc2)c[n+]2ccccc12" ?
Result string: > 100 µM

Query string: Item under review: "Oc1ccc(CCCCCCc2ccc(O)cc2)cc1" . Reported TGI?
Result string: 17.9 µM

Query string: For "CC(=O)c1cc([N+](=O)[O-])ccc1OCC(=O)O" , what is its reported TGI?
Result string: > 100 µM

Query string: What value of TGI has been recorded for this entry: "CCOc1ccc(NCc2cc(OC)c(OC)c(OC)c2)cc1"
Result string: > 84 µM

###

# System: A549 NSCLC
# test-name: NCI tumour cell line growth inhibition, 48 h
readout-name: TGI (µM)
Numeric answer only, unit µM assumed.

Query string: Could you share what TGI was measured for "CC(=O)[O-].CC(=O)[O-].[NH2-].[Pt+2].c1ccc2cnccc2c1" , tested on A549 NSCLC?
Result string: 15.7

Query string: # value lookup — system A549 NSCLC, readout TGI, item "COCCOCCOC1=C(Cl)C(=O)c2c(O)ccc(O)c2C1=O"
Result string: 25.5

Query string: What reported TGI corresponds to "COc1ccc(-c2cncn2-c2ccc(OC)cc2)cc1" on A549 NSCLC?
Result string: 49.3

Query string: Requested read-out TGI, target or system A549 NSCLC, entry "CC[n+]1c(/C=C/c2ccc(N(CCCl)CCCl)cc2)ccc2cc(NC(=O)/C=C/c3ccccc3)ccc21"
Result string: 6.09

Query string: Form: Entry = C=C1CC[C@@H]2[C@](C)(COC(C)=O)[C@H](OC(C)=O)CC[C@@]2(C)[C@@H]1CC(Nc1ccc(S(=O)(=O)Nc2nccc(C)n2)cc1)C1=CCOC1=O (stereo partly specified) | System = A549 NSCLC | TGI = ____
Result string: 21.9
